Compiled notes: published Kd values involving Epidermal growth factor receptor (Homo sapiens, UniProt P00533).

Solved cases (5 shown):
Name the reported Kd value associated with the compound `Cc1ccc(Sc2ncnc3[nH]c(-c4ccc(O)cc4)cc23)cc1`
< 100 nM

Now the compound `COc1ccc(Cn2c(-c3ccc(OC)cc3)cc3c(Nc4cccc(O)c4)ncnc32)cc1`
1000 to 10000 nM

Now the compound CCOc1cc2ncc(C#N)c(Nc3ccc(F)c(Cl)c3)c2cc1NC(=O)C1CCSS1 (stereo not shown)
1 to 99 nM

Now the compound `Oc1ccc(-c2cc3c(Nc4cccc(O)c4)ncnc3[nH]2)cc1`
< 100 nM

Now the compound `C=CC(=O)N[C@@H]1CN(c2nc(Nc3cn(CCOCCOCCNC(=O)c4ccc(Nc5ncc6c(n5)N(C5CCCC5)[C@H](CC)C(=O)N6C)c(OC)c4)nc3OC)c3ncn(C)c3n2)C[C@H]1F`
50 to 500 nM

More entries:
Name the reported Kd value associated with the compound C=C(CN(C(=O)NCc1ccc2c(c1)CN(C1CCC(=O)NC1=O)C2=O)c1ccc(C)c(Cl)c1)C(=O)Nc1cc(Nc2ncc(-c3cn(C)c4ccccc34)cn2)c(OC)cc1N(C)CCN(C)C (stereo not shown)
> 2500 nM

Now the compound `COc1ccc(-c2cc3c(N[C@H](C)c4ccccc4)nc(N[C@@H](C)c4ccccc4)nc3[nH]2)cc1`
< 100 nM

Now the compound C=C(CN1C(=O)CCC(N2Cc3cc(CNC(=O)Nc4ccc(C)c(Cl)c4)ccc3C2=O)C1=O)C(=O)Nc1cc(Nc2ncc(-c3cn(C)c4ccccc34)cn2)c(OC)cc1N(C)CCN(C)C (stereo not shown)
> 2500 nM

Now the compound `C=C(COC(=O)n1c(CNc2nc(N3CCNCC3)nc3c(Br)cnn23)nc2cc(C)ccc21)C(=O)N1C[C@H](COc2nc(Nc3cnn(C)c3)nc3[nH]cc(Cl)c23)[C@@H](OC)C1`
> 2500 nM

Now the compound `COc1cccc(-c2cc3c(Nc4cccc(O)c4)ncnc3[nH]2)c1`
< 100 nM

Now the compound `COC(=O)c1cccc(Nc2ncnc3[nH]c(-c4cccc(OC)c4)cc23)c1`
> 10000 nM

Now the compound `N#Cc1cnc2cc(OC[C@@H](O)CO)c(NC(=O)C[C@@H]3CCSS3)cc2c1Nc1ccc(OCc2cccc(F)c2)c(Cl)c1`
1 to 99 nM
